tested on: Streptococcus pasteurianus; assay: Antibacterial activity against high-level gentamicin resistant Streptococcus pasteurianus SB34 isolate carrying transposon-borne resistance gene [aac(6')Ie-aph(2'')Ia] by agar dilution method; format: functional
measured-parameter: MIC (µg/mL)

- CN[C@@H]1[C@H](O[C@H]2[C@H](O[C@H]3[C@H](O)[C@@H](O)[C@H](N=C(N)N)[C@@H](O)[C@@H]3N=C(N)N)O[C@@H](C)[C@]2(O)C=O)O[C@@H](CO)[C@H](O)[C@H]1O [STREPTOMYCIN]: 32
- CN(C)[C@@H]1C(O)=C(C(N)=O)C(=O)[C@@]2(O)C(O)=C3C(=O)c4c(O)cccc4[C@@](C)(O)[C@H]3C[C@@H]12 [TETRACYCLINE]: 0.25
- CN(C)c1ccc(O)c2c1C[C@H]1C[C@H]3[C@H](N(C)C)C(O)=C(C(N)=O)C(=O)[C@@]3(O)C(O)=C1C2=O [MINOCYCLINE]: 0.12
- CCC[C@@H]1C[C@@H](C(=O)N[C@@H]([C@H]2O[C@H](SC)[C@H](O)[C@@H](O)[C@H]2O)[C@H](C)Cl)N(C)C1 [CLINDAMYCIN]: 128
- CCN[C@@H]1C[C@H](N)[C@@H](O[C@H]2OC(CN)=CC[C@H]2N)[C@H](O)[C@H]1O[C@H]1OC[C@](C)(O)[C@H](NC)[C@H]1O [NETILMICIN]: 32
- NCC[C@H](O)C(=O)N[C@@H]1C[C@H](N)[C@@H](O[C@H]2O[C@H](CN)[C@@H](O)[C@H](O)[C@H]2O)[C@H](O)[C@H]1O[C@H]1O[C@H](CO)[C@@H](O)[C@H](N)[C@H]1O [AMIKACIN]: 32
